Can you tell me pIC50 for the items I'm about to list?
# targetUnderTest: Muscarinic acetylcholine receptor M1 (Homo sapiens)
# Sequence (P11229 whole entry): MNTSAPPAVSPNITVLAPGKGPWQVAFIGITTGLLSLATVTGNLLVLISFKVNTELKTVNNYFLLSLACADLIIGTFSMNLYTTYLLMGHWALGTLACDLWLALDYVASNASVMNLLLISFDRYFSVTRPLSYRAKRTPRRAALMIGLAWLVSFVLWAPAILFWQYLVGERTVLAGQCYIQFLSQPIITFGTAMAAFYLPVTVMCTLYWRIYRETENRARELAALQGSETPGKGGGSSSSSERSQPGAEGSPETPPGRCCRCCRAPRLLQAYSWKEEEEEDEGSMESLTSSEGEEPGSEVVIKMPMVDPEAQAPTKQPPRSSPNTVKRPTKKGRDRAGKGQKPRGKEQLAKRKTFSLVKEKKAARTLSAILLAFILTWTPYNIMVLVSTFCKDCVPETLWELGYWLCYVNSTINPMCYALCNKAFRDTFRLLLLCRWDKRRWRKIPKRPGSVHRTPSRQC
# protocolText: Antagonist activity at recombinant human M1 receptor expressed in CHO cells co-expressing Gqi5 by calcium mobilization assay
Numbers only, as −log10 of the molar value.

Answered examples (3):
smilesRepresentation: O=C(C1CCN(c2cc(Oc3ccccc3F)ncn2)CC1)N1CCc2ccccc2C1
pIC50: 6.49

smilesRepresentation: O=C(C1CCN(c2cc(Oc3ccc(F)cc3F)ncn2)CC1)N1Cc2ccccc2C1
pIC50: 6.27

smilesRepresentation: O=C(C1CCN(c2cc(Oc3ccc(F)cc3F)ncn2)CC1)N1CCc2ccccc2C1
pIC50: 6.60

Now consider a different compound.
Challenge: Bench note: what pIC50 did "O=C(C1CCN(c2cc(Oc3ccc(Cl)cc3)ncn2)CC1)N1CCc2ccccc2C1" show?
Response given: 6.50

====

# targetUnderTest: Muscarinic acetylcholine receptor M3 (Homo sapiens, UniProt P20309)
# protocolText: Antagonist activity at recombinant human M3 receptor expressed in CHO cells co-expressing Gqi5 by calcium mobilization assay relative to acetylcholine
# Assay type: functional, cell-based
# Sequence (P20309 whole entry, looked up): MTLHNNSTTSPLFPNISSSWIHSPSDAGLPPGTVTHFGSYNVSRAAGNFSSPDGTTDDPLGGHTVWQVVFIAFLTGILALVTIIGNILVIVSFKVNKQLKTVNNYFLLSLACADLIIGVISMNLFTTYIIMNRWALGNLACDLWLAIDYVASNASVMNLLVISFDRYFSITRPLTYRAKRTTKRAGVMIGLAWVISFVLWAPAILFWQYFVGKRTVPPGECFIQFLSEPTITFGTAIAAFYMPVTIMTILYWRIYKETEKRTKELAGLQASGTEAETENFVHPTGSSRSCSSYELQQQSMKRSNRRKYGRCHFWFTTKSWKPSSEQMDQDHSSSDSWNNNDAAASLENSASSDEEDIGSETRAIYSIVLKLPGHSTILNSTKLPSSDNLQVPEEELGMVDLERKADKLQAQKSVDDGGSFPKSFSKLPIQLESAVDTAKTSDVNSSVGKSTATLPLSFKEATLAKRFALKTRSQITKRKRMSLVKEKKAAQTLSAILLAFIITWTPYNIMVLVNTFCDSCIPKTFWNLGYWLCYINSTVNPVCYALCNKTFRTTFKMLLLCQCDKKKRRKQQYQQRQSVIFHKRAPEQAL
Can you tell me Emin for the items I'm about to list?

smilesRepresentation: O=C(C1CCN(c2cc(Oc3ccc(Cl)cc3)ncn2)CC1)N1CCc2ccccc2C1
targetUnderTest: Muscarinic acetylcholine receptor M3 (Homo sapiens, UniProt P20309)
recordedValue: < 6%

For each of the compounds below, state Emin.
1. O=C(C1CCN(c2cc(Oc3ccc(F)cc3F)ncn2)CC1)N1CCc2ccccc2C1
2. O=C(C1CCN(c2cc(Oc3ccccc3F)ncn2)CC1)N1CCc2ccccc2C1
3. O=C(C1CCN(c2cc(Oc3ccc(F)cc3F)ncn2)CC1)N1Cc2ccccc2C1

Response given:
1: < 6%; 2: < 6%; 3: 2.3%

====

# targetUnderTest: Muscarinic acetylcholine receptor M3 (Homo sapiens, UniProt P20309)
# protocolText: Antagonist activity at recombinant human M3 receptor expressed in CHO cells co-expressing Gqi5 by calcium mobilization assay
# Format: functional, cell-based
# Sequence (P20309 whole entry): as the sequence (P20309 whole entry, looked up) above
readoutType: IC50 (nM)
Give bare numbers, in nM.

smilesRepresentation: O=C(C1CCN(c2cc(Oc3ccc(F)cc3F)ncn2)CC1)N1CCc2ccccc2C1
resultUnits: nM
IC50: 380
--
smilesRepresentation: O=C(C1CCN(c2cc(Oc3ccccc3F)ncn2)CC1)N1CCc2ccccc2C1
resultUnits: nM
IC50: 404
--
smilesRepresentation: O=C(C1CCN(c2cc(Oc3ccc(F)cc3F)ncn2)CC1)N1Cc2ccccc2C1
resultUnits: nM
IC50: 660

Now consider a different molecule.
Challenge: Bench note: what IC50 did "O=C(C1CCN(c2cc(Oc3ccc(Cl)cc3)ncn2)CC1)N1CCc2ccccc2C1" show?
Response given: 365

====

# targetUnderTest: Muscarinic acetylcholine receptor M4 (Homo sapiens) (UniProt P08173)
# Sequence (P08173 whole entry): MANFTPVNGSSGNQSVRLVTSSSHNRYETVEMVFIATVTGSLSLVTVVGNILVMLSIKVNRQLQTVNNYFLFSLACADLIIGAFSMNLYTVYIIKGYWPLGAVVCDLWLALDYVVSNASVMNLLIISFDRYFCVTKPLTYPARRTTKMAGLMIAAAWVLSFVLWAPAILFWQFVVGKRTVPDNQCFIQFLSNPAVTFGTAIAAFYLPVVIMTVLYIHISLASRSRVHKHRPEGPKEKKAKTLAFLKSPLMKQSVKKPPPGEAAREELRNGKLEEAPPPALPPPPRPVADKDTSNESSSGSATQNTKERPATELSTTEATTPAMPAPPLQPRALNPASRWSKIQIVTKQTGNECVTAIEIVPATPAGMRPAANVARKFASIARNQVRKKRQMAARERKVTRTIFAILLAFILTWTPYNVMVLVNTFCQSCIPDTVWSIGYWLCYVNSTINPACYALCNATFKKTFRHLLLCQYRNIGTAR
# protocolText: Antagonist activity at recombinant human M4 receptor expressed in CHO cells co-expressing Gqi5 by calcium mobilization assay relative to acetylcholine
# Assay type: functional, cell-based
readoutType: Emin (%)
One number for each entry, in %.

smilesRepresentation: COc1ccc2c(c1)CCN(C(=O)C1CCN(c3cc(Oc4ccc(F)cc4F)ncn3)CC1)C2
targetUnderTest: Muscarinic acetylcholine receptor M4 (Homo sapiens) (UniProt P08173)
readoutType: Emin
recordedValue: 5.5
//
smilesRepresentation: COc1ccc2c(c1)CN(C(=O)C1CCN(c3cc(Oc4ccc(F)cc4F)ncn3)CC1)CC2
targetUnderTest: Muscarinic acetylcholine receptor M4 (Homo sapiens) (UniProt P08173)
readoutType: Emin
recordedValue: 11.8
//
smilesRepresentation: O=C(C1CCN(c2cc(Oc3ccccc3F)ncn2)CC1)N1CCc2ccccc2C1
targetUnderTest: Muscarinic acetylcholine receptor M4 (Homo sapiens) (UniProt P08173)
readoutType: Emin
recordedValue: 3.2
//
smilesRepresentation: O=C(C1CCN(c2cc(Oc3ccc(F)cc3F)ncn2)CC1)N1CCc2ccccc2C1
targetUnderTest: Muscarinic acetylcholine receptor M4 (Homo sapiens) (UniProt P08173)
readoutType: Emin
recordedValue: 3
//
smilesRepresentation: O=C(C1CCN(c2cc(Oc3ccc(Cl)cc3Cl)ncn2)CC1)N1CCc2ccccc2C1
targetUnderTest: Muscarinic acetylcholine receptor M4 (Homo sapiens) (UniProt P08173)
readoutType: Emin
recordedValue: 3
//
smilesRepresentation: Cc1ccc(Oc2cc(N3CCC(C(=O)N4CCc5ccccc5C4)CC3)ncn2)cc1
targetUnderTest: Muscarinic acetylcholine receptor M4 (Homo sapiens) (UniProt P08173)
readoutType: Emin
recordedValue: 3.3
//
smilesRepresentation: O=C(C1CCN(c2cc(Oc3ccc(F)cc3F)ncn2)CC1)N1CCCc2ccccc2C1
targetUnderTest: Muscarinic acetylcholine receptor M4 (Homo sapiens) (UniProt P08173)
readoutType: Emin
recordedValue: 6
//
smilesRepresentation: O=C(C1CCN(c2cc(Oc3c(F)cccc3F)ncn2)CC1)N1CCc2ccccc2C1
targetUnderTest: Muscarinic acetylcholine receptor M4 (Homo sapiens) (UniProt P08173)
readoutType: Emin
recordedValue: 7

Now consider a different molecule.
Challenge: Bench note: what Emin did "O=C(C1CCN(c2cc(Oc3cccc(F)c3)ncn2)CC1)N1CCc2ccccc2C1" show?
Response given: 3.2
